Data provenance is ChEMBL document CHEMBL5291721.

Assign AC50 to each entry below.
ASSAY_TARGET: Histamine H2 receptor (Homo sapiens, UniProt P25021); further: assay procedure not described here
Sequence (P25021 whole entry): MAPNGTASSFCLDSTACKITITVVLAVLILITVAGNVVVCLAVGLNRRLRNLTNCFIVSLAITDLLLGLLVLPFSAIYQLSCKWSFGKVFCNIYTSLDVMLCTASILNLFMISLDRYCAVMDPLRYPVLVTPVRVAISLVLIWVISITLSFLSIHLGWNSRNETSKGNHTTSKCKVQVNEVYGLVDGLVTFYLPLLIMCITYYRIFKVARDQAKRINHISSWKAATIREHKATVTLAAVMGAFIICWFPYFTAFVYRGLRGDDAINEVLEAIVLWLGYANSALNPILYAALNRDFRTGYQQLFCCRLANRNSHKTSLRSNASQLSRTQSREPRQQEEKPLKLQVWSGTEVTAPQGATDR
Format: functional, cell-based

# compound "CCCCC[C@H](O)CC[C@@H]1[C@H]2Cc3cccc(OCC(=O)O)c3C[C@H]2C[C@H]1O" ; its AC50 = > 30 µM

Measured AC50 of "OCC(CO)N[C@H]1C[C@](O)(CO)[C@@H](O)[C@H](O)[C@H]1O" : > 30 µM

// AC50 value for CC(C(=O)O)c1ccc(C(=O)c2ccccc2)s1 (centres undefined) : > 10 µM

AC50 reading for "O=C(O)c1nn(Cc2ccc(Cl)cc2Cl)c2ccccc12" : > 30 µM

Lookup result for "CC(C)C[C@H](NC(=O)[C@H](Cc1ccccc1)NC(=O)c1cnccn1)B(O)O" ; measured AC50: > 30 µM

Per the records, this compound ( "COc1ccc(C(=O)c2ccccc2)c(O)c1" ) has AC50 equal to > 30 µM

Lookup result for "O=C(Cc1cccs1)N[C@@H]1C(=O)N2C(C(=O)[O-])=C(C[n+]3ccccc3)CS[C@H]12" ; measured AC50: > 30 µM

Lab book: AC50 of CS(=O)(=O)Nc1ccc([N+](=O)[O-])cc1Oc1ccccc1 [NIMESULIDE] noted as > 30 µM

Consider "Oc1cc(O)c2c(c1)O[C@H](c1ccc(O)c(O)c1)[C@@H](O)C2" . Its measured AC50 is > 10 µM

For this compound ( "CC(=O)Oc1cccc2c1C(=O)c1c(OC(C)=O)cc(C(=O)O)cc1C2=O" ), measured AC50 is > 30 µM

Lab note: measured AC50 of CC(=O)OCC(=O)[C@@]1(O)CC[C@H]2[C@@H]3CCC4=CC(=O)CC[C@]4(C)[C@@]3(F)[C@@H](O)C[C@@]21C [FLUDROCORTISONE ACETATE] was > 30 µM

Record summary for CCCO[C@H]1[C@@H]([C@@H](COCc2ccc(Cl)cc2)OCc2ccc(Cl)cc2)OC(OCC)[C@@H]1O (some centres undefined) [CLOBENOSIDE] : reported AC50 = > 30 µM

Query "O=C(O)c1ccc2nc(-c3cc(Cl)cc(Cl)c3)oc2c1" yields AC50 of > 30 µM

Measured AC50 of "CC(=O)Oc1ccccc1C(=O)O" : > 10 µM

AC50 reading for CC1NCCOC1c1ccccc1 (centres undefined) : > 10 µM

Per the records, this compound ( CC(C)(Oc1ccc(Cl)cc1)C(=O)OCCOC(=O)c1cccnc1 [ETOFIBRATE] ) has AC50 equal to > 30 µM

Entry "NCC1(CC(=O)O)CCCCC1" — recorded AC50 = > 10 µM

Entry "CC(C)/N=c1\cc2n(-c3ccc(Cl)cc3)c3ccccc3nc-2cc1Nc1ccc(Cl)cc1" — recorded AC50 = > 30 µM

Recorded result, CCN(CC)C(C)C(=O)c1ccccc1 (centres undefined) , AC50: > 10 µM

====

Provide the recorded AC50 for the entries that follow.
ASSAY_TARGET: Alpha-2A adrenergic receptor (Homo sapiens, UniProt P08913); further: assay procedure not described here
Sequence (P08913 whole entry): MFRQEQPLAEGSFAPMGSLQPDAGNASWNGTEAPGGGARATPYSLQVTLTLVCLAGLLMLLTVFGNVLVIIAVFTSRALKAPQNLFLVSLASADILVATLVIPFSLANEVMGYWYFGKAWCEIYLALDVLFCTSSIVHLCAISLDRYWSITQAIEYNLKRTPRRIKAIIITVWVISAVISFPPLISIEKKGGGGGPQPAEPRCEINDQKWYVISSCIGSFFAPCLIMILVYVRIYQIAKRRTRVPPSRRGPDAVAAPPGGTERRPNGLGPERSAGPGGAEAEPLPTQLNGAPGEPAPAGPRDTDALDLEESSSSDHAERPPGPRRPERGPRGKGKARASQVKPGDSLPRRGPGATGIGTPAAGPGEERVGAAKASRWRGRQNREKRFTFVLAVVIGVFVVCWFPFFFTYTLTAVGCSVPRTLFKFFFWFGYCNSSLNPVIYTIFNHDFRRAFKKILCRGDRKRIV
Assay type: functional, cell-based

Measured AC50 of CC(C)(Oc1ccc(Cl)cc1)C(=O)OCCOC(=O)c1cccnc1 [ETOFIBRATE] : > 30 µM

get_value(item= Nc1c2c(nc3ccccc13)CCCC2O (stereo unspecified) , readout=AC50) returns > 30 µM

Noted for CNC1(C)C2CCC(C2)C1(C)C (stereo unspecified) : its AC50 reads > 10 µM

Record CCOC(=O)C1=C(C)NC(C)=C(C(=O)OC)C1c1cccc(Cl)c1Cl (stereo unspecified) . Reported AC50: > 10 µM

Kindly note the recorded AC50 for "Cc1ccc(-c2ncc(Cl)cc2-c2ccc(S(C)(=O)=O)cc2)cn1" , which is > 10 µM

Record CC(=O)N1CCN(c2ccc(OCC3COC(Cn4ccnc4)(c4ccc(Cl)cc4Cl)O3)cc2)CC1 (stereo unspecified) . Reported AC50: > 10 µM

Record OCC(O)COc1ccc(Cl)cc1 (stereo unspecified) . Reported AC50: > 10 µM

# AC50 (molecule: "C[C@H](CCC(=O)O)[C@H]1CC[C@H]2[C@@H]3[C@H](O)C[C@@H]4C[C@H](O)CC[C@]4(C)[C@H]3CC[C@]12C" ) is 3 µM

Measured AC50 of "O=C(Cc1cccs1)N[C@@H]1C(=O)N2C(C(=O)[O-])=C(C[n+]3ccccc3)CS[C@H]12" : > 30 µM

For this molecule ( CN1C2CCCC1CC(NC(=O)c1nn(C)c3ccccc13)C2 (stereo unspecified) ), measured AC50 is > 10 µM

Notebook: O=C(c1ccccc1)c1ccc2n1CCC2C(=O)O (stereo unspecified) , AC50 read as > 30 µM

Field AC50 (entry "CC(=O)OCC1=C(C(=O)O)N2C(=O)[C@@H](NC(=O)Cc3cccs3)[C@H]2SC1" ) reads > 30 µM

// sample "COc1ccc(C(Cl)=C(c2ccc(OC)cc2)c2ccc(OC)cc2)cc1" , its AC50 was > 30 µM

What the record says about "CC[N+](CC)(CCNC(=O)C(=O)NCC[N+](CC)(CC)Cc1ccccc1Cl)Cc1ccccc1Cl" : AC50 is > 30 µM

// recorded AC50 for "CN(C)CCc1c[nH]c2ccc(CS(=O)(=O)N3CCCC3)cc12" : > 30 µM

Input "C[C@]12CCC(=O)C=C1CC[C@H]1[C@@H]3CC[C@](O)(C(=O)CO)[C@@]3(C)C[C@H](O)[C@@]12F" . Output AC50: > 10 µM

The molecule identified as "C[C@]12C=CC(=O)C=C1C(Cl)=C[C@@H]1[C@@H]2[C@@H](O)C[C@@]2(C)[C@H]1CC[C@]2(O)C(=O)CO" registered its AC50 at > 30 µM

Measured AC50, CC(C)NCC(O)COc1ccc(CC(N)=O)cc1 (stereo unspecified) : > 30 µM

Input Cc1ccc(S(=O)(=O)NC(=O)N[C@H]2[C@H]3CC[C@@](C)([C@H]2O)C3(C)C)cc1 [GLIBORNURIDE] . Output AC50: > 30 µM

Data point: "Nc1ccc(S(=O)(=O)Nc2ncccn2)cc1" ; AC50 = > 10 µM

Given item "CCOc1ccccc1OCCN[C@H](C)Cc1ccc(OC)c(S(N)(=O)=O)c1" , the value recorded as its AC50 is 4.77 µM

Sample CN1CC2c3ccccc3Oc3ccc(Cl)cc3C2C1 (stereo unspecified) ; AC50 observed: 0.079 µM

Note to self: AC50 recorded for CCN1C(=O)NC(c2ccccc2)C1=O (stereo unspecified) was > 30 µM

Given item "NCCCNCCSP(=O)(O)O" , the value recorded as its AC50 is > 30 µM

Quick note, AC50 for COc1cc(N)cn[n+]1-c1ccccc1 [AMEZINIUM METILSULFATE] landed at > 30 µM

Note to self: AC50 recorded for "COC(=O)c1ccc2c(c1)NC(=O)/C2=C(\Nc1ccc(N(C)C(=O)CN2CCN(C)CC2)cc1)c1ccccc1" was > 30 µM

====

ASSAY_TARGET: Muscarinic acetylcholine receptor M2 (Homo sapiens, UniProt P08172); further: assay procedure not described here
Sequence (P08172 whole entry): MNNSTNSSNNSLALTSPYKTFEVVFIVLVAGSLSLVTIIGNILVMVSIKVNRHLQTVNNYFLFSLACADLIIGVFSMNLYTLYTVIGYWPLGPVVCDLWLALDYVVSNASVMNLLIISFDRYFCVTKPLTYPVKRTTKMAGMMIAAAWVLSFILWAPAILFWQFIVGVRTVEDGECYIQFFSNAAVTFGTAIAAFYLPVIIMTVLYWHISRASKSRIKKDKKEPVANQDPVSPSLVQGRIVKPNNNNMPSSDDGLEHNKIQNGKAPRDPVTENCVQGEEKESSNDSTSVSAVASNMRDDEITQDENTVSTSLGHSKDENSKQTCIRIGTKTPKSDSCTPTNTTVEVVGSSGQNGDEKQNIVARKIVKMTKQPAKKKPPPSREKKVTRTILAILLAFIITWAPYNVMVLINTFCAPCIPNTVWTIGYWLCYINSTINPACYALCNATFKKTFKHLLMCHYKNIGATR
Type: functional, cell-based
ATTRIBUTE_MEASURED: AC50

AC50 recorded for this compound, "NS(=O)(=O)c1ccc(N2CCCCS2(=O)=O)cc1" , is > 30 µM

Entry under test: "COc1ccc(-n2nc(C(N)=O)c3c2C(=O)N(c2ccc(N4CCCCC4=O)cc2)CC3)cc1" . Its AC50 was > 30 µM

Data point: "O=C(O)CCCC[C@@H]1SC[C@@H]2NC(=O)N[C@@H]21" ; AC50 = > 10 µM

Form: compound = "CCNC(=O)CCC/C=C\C[C@@H]1[C@@H](/C=C/[C@@H](O)CCc2ccccc2)[C@H](O)C[C@@H]1O" ; AC50 = > 30 µM

Recorded AC50 (compound "COc1ccc(C(=O)c2ccccc2)c(O)c1" ): > 30 µM

Form field AC50, entry "CCOC(=O)[C@H](CCc1ccccc1)N[C@@H](C)C(=O)N1Cc2ccccc2C[C@H]1C(=O)O" : > 10 µM
